From: PubChem BioAssay (NCI)

Tested on: HCT-15 colon
Assay: NCI-60 one-dose screen, 48 h (100 = growth as untreated, 0 = no growth, -100 = all killed)
Conditions: 10 µM unless noted
This is part of a sample that, as a whole, favours compounds with a hit. Of some 83,000 tested, about 20% had one in any assay.
result-type: growth (%)
One number for each entry, in %.

• COc1cc(-c2nn(-c3ccc(Br)cc3)cc2CO)ccc1O = 87.4
• COC(=O)c1cc2c3c(cc(O)c2[nH]1)N(C(=O)C1Cc2cc(OC)c(OC)c(OC)c2N1)CC3CCl (stereo unspecified) = 1.13
• C#C[C@@]1(O)[C@@H](CO)O[C@@H](n2cc(I)c3c(N)ncnc32)[C@@H]1O = 5.73

State recorded growth for all listed compounds.
1. COc1cc(/C=C/C(=O)/C=C/c2cc3ccc(Cl)cc3[nH]c2=O)ccc1O
2. CCOC(=O)NCCc1nc2c([nH]1)c(=O)n(C)c(=O)n2C
3. CCCn1c2cc(OCc3cn(-c4ccc(Br)cc4)nn3)ccc2c2ccnc(C)c21
4. Cn1c2ccccc2c2c(OC(=O)c3ccccc3)c3c(nc21)-c1ccccc1C3

Result:
1. 52.4
2. 97.6
3. 73.5
4. 105

State recorded growth for all listed compounds.
1. CC(=O)c1ccc(NC(=O)CSc2nnc(-c3cc(-c4ccc(C)cc4)nc4ccccc34)o2)cc1
2. COc1cc(NC(=O)COc2cc(C)nc3ccc(OC)cc23)cc(OC)c1
3. O=C1CS/C(=N/c2nnc(-c3ccc(O)cc3)s2)N1
4. COc1ccc(Cc2nc(C#N)c(N3CCN(c4ccc(F)cc4)CC3)o2)cc1
5. CCCCn1c2cc(OCc3cn(-c4ccc(Cl)cc4)nn3)ccc2c2ccnc(C)c21
6. COc1ccc2[nH]c(=O)c(/C=C/C(=O)/C=C/c3ccc(O)c(OC)c3)cc2c1

Result:
1. 56.7
2. 90.9
3. 101
4. 76
5. 17.7
6. 2.08

State recorded growth for all listed compounds.
1. COC(=O)c1ccc2c(c1)NC(=O)[C@@H]1CCCN21
2. COc1ccc(-c2nnc(N3CCN(C(=O)CN4CCN(c5ccccc5)CC4)CC3)nc2-c2ccc(OC)cc2)cc1

Result:
1: 96.6; 2: 18.5

State recorded growth for all listed compounds.
1. C=C1C(=O)O[C@H]2[C@H]1CC/C(COC(=O)N1CCC[C@H]1C(=O)Nc1ccc(OC)c(C(N)=O)c1O)=C\CC[C@@]1(C)O[C@@H]21
2. C=C1C(=O)O[C@H]2[C@H]1CC/C(COC(=O)CCCCCCCC(=O)OC/C1=C/CC[C@@]3(C)O[C@H]3[C@H]3OC(=O)C(=C)[C@@H]3CC1)=C\CC[C@@]1(C)O[C@@H]21
3. COc1ccc(-c2cs/c(=N\N=C\c3ccc(O)cc3O)n2/N=C/c2ccc(O)cc2O)cc1
4. Nc1c(C(=O)Nc2ccccn2)sc2nc3c(cc12)C(=O)CCC3
5. COC(=O)/C=C1\SC(=Nc2ccc(C(F)(F)F)cc2)N(CCc2c[nH]c3ccccc23)C1=O
6. COc1cc(-c2csc(NC(=O)Nc3ccc(C(F)(F)F)cc3)n2)cc(OC)c1OC
7. COc1ccc(N(C)c2nc(Cl)nc3ccn(C)c23)cc1
8. C#CCN(CCCOc1ccc(Cl)cc1Cl)CCCSC(=O)CCCCCN1/C(=C\C=C2/CCCC(/C=C/C3=[N+](CCCCCC(=O)[O-])c4ccccc4C3(C)C)=C2Cl)C(C)(C)c2ccccc21

Result:
[59.6, -4.93, -53.1, 28.5, -71.4, 10.6, 12.6, 87.2]

State recorded growth for all listed compounds.
1. CCC1S/C(=N\N=C(/C)c2ccc[nH]2)N(c2ccccc2)C1=O (stereo unspecified)
2. CCCCC(=O)Nc1c(C(=O)Nc2ccccc2)sc2nc3c(cc12)C(OC(=O)CCCC)CCC3 (stereo unspecified)
3. COc1ccc2oc(=O)cc(-c3c(C#N)c(N)n4nc(N)c(C#N)c4c3C#N)c2c1
4. Cn1nc(C(F)(F)F)c(-c2cc(C(F)(F)F)cc(C(F)(F)F)c2)c1-c1ccc(OCc2ccc(Cl)cc2)cc1O
5. c1ccc(Sc2ncccn2)nc1
6. CCCn1c2cc(OCc3cn(-c4ccc(Cl)cc4)nn3)ccc2c2ccnc(C)c21
7. Nc1ccc(C(=O)Nc2cccc(C(=O)Nc3ccc4c(O)c(N=Nc5ccc(N=Nc6ccc(S(=O)(=O)O)cc6)cc5)c(S(=O)(=O)O)cc4c3)c2)cc1
8. CCCCn1c(=O)c(/C=C/C(=O)/C=C/c2ccc(OC)cc2)cc2cc(Cl)ccc21

Result:
[96.1, 81.3, 102, 7.5, 102, 67.6, 102, 27.5]

State recorded growth for all listed compounds.
1. COc1ccc2nc(-c3ccc(Cl)cc3)cc(-c3nnc(SC/C(=N/O)c4ccccc4)o3)c2c1
2. COc1cc(-c2cn(-c3ccc(Cl)c(Cl)c3)c(=O)[nH]2)cc(OC)c1OC
3. Nc1cccc(C(=O)Nc2ccc3c(O)c(N=Nc4ccc(N=Nc5ccc(S(=O)(=O)O)cc5)cc4)c(S(=O)(=O)O)cc3c2)c1
4. CC(=O)O[C@@H]1C[C@]2(C)[C@H]3[C@H](O)C[C@@H]4C5=CC(C)(C)CC[C@]5(C)CC[C@@]4(C)[C@]3(C)CC[C@H]2C(C)(C)[C@H]1O

Result:
1. 48.3
2. 103
3. 108
4. 100

Problem: # lookup: growth of Cc1nccc2c3ccc(OCc4cn(-c5ccccc5)nn4)cc3n(CCCc3ccccc3)c12
Result: 56.9
